- Tested on: male rats
- protocolText: Plasma metabolite profiling (GC-MS, LC-MS, SPE-LC-MS) in male rats dosed once daily over 28 days (OECD 407)
- Assay type: in vivo, rat
- measurementConditions: m7; high dose; Table 10a
Where a name gives a salt, the structure may show the parent alone. Marks after values point to notes of the source that are not given here.
I'd be grateful if you could share measured Stearic acid (C18:0) for these entries.

compound=Cn1cc[nH]c1=S testedtarget="male rats" endpoint="Stearic acid (C18:0)" testresult="1.34 *"
compound="CC(C)C(=O)Nc1ccc([N+](=O)[O-])c(C(F)(F)F)c1 [Flutamide]" testedtarget="male rats" endpoint="Stearic acid (C18:0)" testresult="1.15 *"

Could you report Stearic acid (C18:0) for every entry in the following list?
1. CNCCC(Oc1ccc(C(F)(F)F)cc1)c1ccccc1 (stereo not shown) [Fluoxetine hydrochloride]
2. Cc1cccc(C)c1N(Cn1cccn1)C(=O)CCl

Found:
[1.21, "1.45 *"]

----------
- Tested on: male rats
- protocolText: Plasma metabolite profiling (GC-MS, LC-MS, SPE-LC-MS) in male rats dosed once daily over 28 days (OECD 407)
- Type: in vivo, rat
- measurementConditions: m28; high dose; Table 10a
Where a name gives a salt, the structure may show the parent alone. Marks after values point to notes of the source that are not given here.
endpoint: alpha-Tocopherol

Could you report alpha-Tocopherol for every entry in the following list?
1. Cc1cccc(C)c1N(Cn1cccn1)C(=O)CCl
2. CC(C)C(=O)Nc1ccc([N+](=O)[O-])c(C(F)(F)F)c1 [Flutamide]
3. Cn1cc[nH]c1=S
4. CNCCC(Oc1ccc(C(F)(F)F)cc1)c1ccccc1 (stereo not shown) [Fluoxetine hydrochloride]

Found:
1: 2.11 *; 2: 1.54 *; 3: 2.18 *; 4: 1.74 *

----------
- Test system: male rats
- protocolText: Plasma metabolite profiling (GC-MS, LC-MS, SPE-LC-MS) in male rats dosed once daily over 28 days (OECD 407)
- Format: in vivo, rat
- measurementConditions: male rats, plasma, high dose, day 14
Marks after values point to notes of the source that are not given here.
endpoint: alpha-Tocopherol, ratio versus control

compound="CCNC(=O)[C@@H]1CCCN1C(=O)[C@H](CCCNC(=N)N)NC(=O)[C@H](CC(C)C)NC(=O)[C@@H](COC(C)(C)C)NC(=O)[C@H](Cc1ccc(O)cc1)NC(=O)[C@H](CO)NC(=O)[C@H](Cc1c[nH]c2ccccc12)NC(=O)[C@H](Cc1cnc[nH]1)NC(=O)[C@@H]1CCC(=O)N1 [Buserelin acetate a.c., Buserelin acetate]" testresult="0.93 *"

Lookup: Missing value: alpha-Tocopherol, ratio versus control, male rats, entry CC(=O)O[C@]1(C(C)=O)CC[C@H]2[C@@H]3C[C@H](C)C4=CC(=O)CC[C@]4(C)[C@H]3CC[C@@]21C . Fill in?
Found: 0.82 *

----------
- Test system: male rats
- protocolText: Plasma metabolite profiling (GC-MS, LC-MS, SPE-LC-MS) in male rats dosed once daily over 28 days (OECD 407)
- Format: in vivo, rat
- measurementConditions: m14; high dose; Table 10b
Where a name gives a salt, the structure may show the parent alone. Marks after values point to notes of the source that are not given here.
I'd be grateful if you could share measured Thyroxine (T4) for these entries.

Examples from the recorded data:
molecule="Cn1cc[nH]c1=S [Methimazole]" testresult="0.04 *"
molecule="Cc1cccc(C)c1N(Cn1cccn1)C(=O)CCl [Metazachlor]" testresult="0.56 *"
molecule="CC(C)C(=O)Nc1ccc([N+](=O)[O-])c(C(F)(F)F)c1 [Flutamide]" testresult=0.57^

Now for a further molecule.
Lookup: If you can, please state the reported Thyroxine (T4) value of CNCCC(Oc1ccc(C(F)(F)F)cc1)c1ccccc1 (stereo not shown) [Fluoxetine hydrochloride] .
Found: 0.59^

----------
- Tested on: male rats
- protocolText: Plasma metabolite profiling (GC-MS, LC-MS, SPE-LC-MS) in male rats dosed once daily over 28 days (OECD 407)
- Assay type: in vivo, rat
- measurementConditions: m7; high dose; Table 14b
Structures can show the parent of a compound that is named as a salt.
I'd be grateful if you could share measured erythro-Sphingosine (d18:1) for these entries.

Examples from the recorded data:
compound="C[C@]12C=CC3=C4CCC(=O)C=C4CCC3C1CC[C@@H]2O (stereo partly drawn)" endpoint="erythro-Sphingosine (d18:1)" testresult=0.1
compound=CC/C(=C(\c1ccccc1)c1ccc(OCCN(C)C)cc1)c1ccccc1 endpoint="erythro-Sphingosine (d18:1)" testresult=0.28
compound="O=C(c1ccc(OCCN2CCCCC2)cc1)c1c(-c2ccc(O)cc2)sc2cc(O)ccc12 [Raloxifene Hydrochloride]" endpoint="erythro-Sphingosine (d18:1)" testresult=0.38

Could you report erythro-Sphingosine (d18:1) for every entry in the following list?
1. C#C[C@]1(O)CC[C@H]2[C@@H]3CCc4cc(O)ccc4[C@H]3CC[C@@]21C
2. C[C@]12CCC(=O)C=C1CC[C@@H]1[C@@H]2CC[C@@]2(C)[C@H]1CC[C@]2(C)O
3. OCCNCCO

Found:
1. 0.09
2. 0.17
3. 0.62

----------
- Test system: male rats
- protocolText: Plasma metabolite profiling (GC-MS, LC-MS, SPE-LC-MS) in male rats dosed once daily over 28 days (OECD 407)
- Type: in vivo, rat
- measurementConditions: m7; high dose; Table 14b
Structures can show the parent of a compound that is named as a salt.
Mark class 1 only when Lignoceric acid (C24:0) stays strictly below 0.5. Values equal to the cut-off are class 0.

These solved cases illustrate the format of a correct answer.
molecule="C[C@]12C=CC3=C4CCC(=O)C=C4CCC3C1CC[C@@H]2O (stereo partly drawn)" grouplabel="class 1"
molecule=C[C@]12CCC(=O)C=C1CC[C@@H]1[C@@H]2CC[C@@]2(C)[C@H]1CC[C@]2(C)O grouplabel="class 1"
molecule=C#C[C@]1(O)CC[C@H]2[C@@H]3CCc4cc(O)ccc4[C@H]3CC[C@@]21C grouplabel="class 1"
molecule="O=C(c1ccc(OCCN2CCCCC2)cc1)c1c(-c2ccc(O)cc2)sc2cc(O)ccc12 [Raloxifene Hydrochloride]" grouplabel="class 1"

Attention now turns to another entry.
Lookup: Bench note: check whether OCCNCCO shows Lignoceric acid (C24:0) below 0.5
Found: class 0

----------
- System: male rats
- protocolText: Plasma metabolite profiling (GC-MS, LC-MS, SPE-LC-MS) in male rats dosed once daily over 28 days (OECD 407)
- Assay type: in vivo, rat
- measurementConditions: male rats, plasma, high dose, day 28
Marks after values point to notes of the source that are not given here.
I'd be grateful if you could share measured Testosterone, ratio versus control for these entries.

Examples from the recorded data:
compound="CC(=O)O[C@]1(C(C)=O)CC[C@H]2[C@@H]3C[C@H](C)C4=CC(=O)CC[C@]4(C)[C@H]3CC[C@@]21C [Medroxyprogesterone acetat]" testresult="0.08 *"
compound="CCNC(=O)[C@@H]1CCCN1C(=O)[C@H](CCCNC(=N)N)NC(=O)[C@H](CC(C)C)NC(=O)[C@@H](COC(C)(C)C)NC(=O)[C@H](Cc1ccc(O)cc1)NC(=O)[C@H](CO)NC(=O)[C@H](Cc1c[nH]c2ccccc12)NC(=O)[C@H](Cc1cnc[nH]1)NC(=O)[C@@H]1CCC(=O)N1 [Buserelin acetate a.c., Buserelin acetate]" testresult="0.08 *"
compound="C[C@@H]1CC2=CC(=O)CC[C@@H]2[C@H]2CC[C@@]3(C)[C@@H](CC[C@]3(C)O)[C@@H]21 [Mibolerone]" testresult="0.26 *"

Now for a further compound.
Lookup: If you can, please state the reported Testosterone, ratio versus control value of O=P1(NCCCl)OCCCN1CCCl (stereo not shown) [Ifosfamide] .
Found: 0.22 *

----------
- System: male rats
- protocolText: Plasma metabolite profiling (GC-MS, LC-MS, SPE-LC-MS) in male rats dosed once daily over 28 days (OECD 407)
- Type: in vivo, rat
- measurementConditions: male rats, plasma, high dose, day 7
I'd be grateful if you could share measured Testosterone, ratio versus control for these entries.
Answers are plain numbers.

compound=CC(=O)O[C@]1(C(C)=O)CC[C@H]2[C@@H]3C[C@H](C)C4=CC(=O)CC[C@]4(C)[C@H]3CC[C@@]21C testresult=2

Now for a further compound.
Lookup: If you can, please state the reported Testosterone, ratio versus control value of O=P1(NCCCl)OCCCN1CCCl (centres unmarked) [Ifosfamide] .
Found: 2.35

----------
- System: male rats
- protocolText: Plasma metabolite profiling (GC-MS, LC-MS, SPE-LC-MS) in male rats dosed once daily over 28 days (OECD 407)
- Format: in vivo, rat
- measurementConditions: m7; high dose; Table 10b
- Description: Each dose group in the studies consisted of five rats per sex. Additional groups of each 5 male and female animals served as controls. […] All animals of the animal population were kept under the same constant temperature (20-24±3° C.) and the same constant humidity (30-70%). The animals of the animal population were fed ad libitum. […] Steroids and their metabolites were measured by online SPE-LC-MS (Solid phase extraction-LC-MS). […]
Where a name gives a salt, the structure may show the parent alone. Marks after values point to notes of the source that are not given here.
endpoint: Thyroxine (T4)

compound="Cn1cc[nH]c1=S [Methimazole]" endpoint="Thyroxine (T4)" testresult="0.11 *"
compound="CC(C)C(=O)Nc1ccc([N+](=O)[O-])c(C(F)(F)F)c1 [Flutamide]" endpoint="Thyroxine (T4)" testresult="0.46 *"
compound="Cc1cccc(C)c1N(Cn1cccn1)C(=O)CCl [Metazachlor]" endpoint="Thyroxine (T4)" testresult=0.98

Now for a further compound.
Lookup: If you can, please state the reported Thyroxine (T4) value of CNCCC(Oc1ccc(C(F)(F)F)cc1)c1ccccc1 (stereo not shown) [Fluoxetine hydrochloride] .
Found: 0.42 *
